The measurements presented in this section are drawn from ChEMBL document CHEMBL1137571.

biological target: Amine oxidase [flavin-containing] B (Homo sapiens, UniProt P27338); assay: Inhibition of human recombinant MAOB expressed in Pichia pastoris
Sequence (P27338 whole entry): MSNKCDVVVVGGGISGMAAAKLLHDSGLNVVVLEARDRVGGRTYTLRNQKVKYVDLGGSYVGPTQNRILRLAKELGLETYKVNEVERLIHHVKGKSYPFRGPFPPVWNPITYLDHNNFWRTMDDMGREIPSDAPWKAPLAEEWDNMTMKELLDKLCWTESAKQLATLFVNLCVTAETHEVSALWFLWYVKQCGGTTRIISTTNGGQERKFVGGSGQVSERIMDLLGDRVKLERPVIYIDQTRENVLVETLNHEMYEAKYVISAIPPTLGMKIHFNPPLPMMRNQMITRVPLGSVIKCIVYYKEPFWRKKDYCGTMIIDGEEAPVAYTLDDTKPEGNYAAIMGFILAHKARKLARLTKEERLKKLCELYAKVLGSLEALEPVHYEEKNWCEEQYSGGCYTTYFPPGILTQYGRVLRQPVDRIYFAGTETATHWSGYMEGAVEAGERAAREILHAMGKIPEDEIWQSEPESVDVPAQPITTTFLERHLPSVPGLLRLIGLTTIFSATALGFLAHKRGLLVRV
reportedEndpoint: Ki (nM)
Field: numeric (nM). Do not append units.

Entry O=Cc1cc(=O)oc2cc(OCc3cccc(Cl)c3)ccc12 , Ki reported as 400

Entry CNCc1cc(=O)oc2cc(OCc3cccc(Cl)c3)ccc12 , Ki reported as 100

====

target: Amine oxidase [flavin-containing] A (Homo sapiens, UniProt P21397); experiment: Inhibition of human recombinant MAOA expressed in Pichia pastoris
Sequence (P21397 whole entry): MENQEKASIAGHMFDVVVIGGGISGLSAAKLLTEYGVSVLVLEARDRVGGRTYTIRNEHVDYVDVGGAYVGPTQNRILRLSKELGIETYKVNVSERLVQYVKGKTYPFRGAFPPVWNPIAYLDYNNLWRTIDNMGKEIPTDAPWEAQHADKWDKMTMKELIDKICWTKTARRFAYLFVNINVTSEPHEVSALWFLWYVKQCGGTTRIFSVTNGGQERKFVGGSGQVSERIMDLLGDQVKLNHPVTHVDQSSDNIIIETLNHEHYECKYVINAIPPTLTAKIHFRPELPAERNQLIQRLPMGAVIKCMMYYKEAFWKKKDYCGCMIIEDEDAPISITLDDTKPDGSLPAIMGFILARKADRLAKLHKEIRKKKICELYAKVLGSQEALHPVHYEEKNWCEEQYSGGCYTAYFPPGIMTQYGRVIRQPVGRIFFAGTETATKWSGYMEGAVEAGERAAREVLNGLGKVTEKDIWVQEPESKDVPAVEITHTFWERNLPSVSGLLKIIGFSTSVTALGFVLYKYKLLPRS
reportedEndpoint: Ki (µM)
Field: numeric (µM). Do not append units.

CNCc1cc(=O)oc2cc(OCc3cccc(Cl)c3)ccc12
15.7

Attention now turns to another entry.
Entry O=Cc1cc(=O)oc2cc(OCc3cccc(Cl)c3)ccc12 , Ki reported as 11
